System: blackgrass
Assay: Test C postemergence
Assay type: in vivo, Alopecurus myosuroides
Details: postemergence, 250 g ai/ha; scale 0 to 100 (0 no effect, 100 complete control)
Text: […]
MEASUREMENT_KIND: Plant response rating, Blackgrass
Please respond with just the number, no unit label.

Inquiry: For the molecule CCc1cc(C(=O)NC2CC2)nn1Cc1ccnc(OC(F)F)c1 , give its reported Plant response rating, Blackgrass.
Reply text: 40

Inquiry: Return Plant response rating, Blackgrass for the following molecule: CCc1cc(C(=O)NCC2CC2)nn1Cc1ccnc(C(F)(F)F)c1
Reply text: 30

Inquiry: State its Plant response rating, Blackgrass: CCOc1cc(C(=O)NC(C)C)nn1Cc1ccnc(C(F)(F)F)c1
Reply text: 70

Inquiry: Could you please provide reported Plant response rating, Blackgrass for CCc1cc(C(=O)NC(C)C)nn1Cc1ccnc(C(F)(F)F)c1 ? Thanks!
Reply text: 35

Inquiry: Report Plant response rating, Blackgrass, nothing else, for this molecule: CCNC(=O)c1cc(CC)n(Cc2ccnc(C(F)(F)F)c2)n1
Reply text: 15

Inquiry: Specify Plant response rating, Blackgrass for CCNC(=O)c1cc(CC)n(Cc2ccnc(OC(F)F)c2)n1 and stop.
Reply text: 10

Inquiry: // fetch Plant response rating, Blackgrass given entry CCc1cc(C(=O)NC2CC2)nn1Cc1ccnc(OCC(F)(F)F)c1
Reply text: 15

Inquiry: Return Plant response rating, Blackgrass for the following molecule: CCCc1cc(C(=O)NCC)nn1Cc1ccnc(C(F)(F)F)c1
Reply text: 35

Inquiry: Determine its reported Plant response rating, Blackgrass: CCCNC(=O)c1cc(CC)n(Cc2ccnc(OC(F)F)c2)n1
Reply text: 25

Inquiry: Using known records, supply Plant response rating, Blackgrass for Cc1cc(C(=O)NC(C)C)nn1Cc1ccnc(C(F)(F)F)c1
Reply text: 15
